system.name: PDE4B (human recombinant) (Homo sapiens)
Construct: made in house; host or cells: Saccharomyces cerevisiae strain GL62 (PDE-deficient)
Sequence (Q07343 1-564 isoform Q07343-2): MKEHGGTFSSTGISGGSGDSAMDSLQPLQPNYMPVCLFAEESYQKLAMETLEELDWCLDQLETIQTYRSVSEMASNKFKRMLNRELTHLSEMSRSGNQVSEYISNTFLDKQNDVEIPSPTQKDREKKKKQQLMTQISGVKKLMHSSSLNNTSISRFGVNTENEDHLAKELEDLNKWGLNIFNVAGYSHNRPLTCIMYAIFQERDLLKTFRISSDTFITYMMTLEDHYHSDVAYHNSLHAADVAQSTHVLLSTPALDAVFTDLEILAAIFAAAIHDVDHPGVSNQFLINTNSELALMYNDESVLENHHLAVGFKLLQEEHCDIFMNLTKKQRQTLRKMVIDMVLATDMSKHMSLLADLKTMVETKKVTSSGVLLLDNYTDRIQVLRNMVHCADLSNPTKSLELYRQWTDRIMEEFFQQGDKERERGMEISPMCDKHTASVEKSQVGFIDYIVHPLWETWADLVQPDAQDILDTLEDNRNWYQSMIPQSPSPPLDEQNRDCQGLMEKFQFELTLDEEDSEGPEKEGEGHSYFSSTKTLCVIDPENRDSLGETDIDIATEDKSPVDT
test.details: PDE4B inhibition, radioactive SPA or IMAP fluorescence polarisation (FP) assay
Assay type: biochemical
measurement.parameters: one reading or average of ca. 2-6 readings, accurate only to about ±0.5 log unit, read-out: PDE4B pIC50 (±about 0.5) (converted)
assay.metric: IC50

Worked examples follow.
{"columns": ["compound", "system.name", "IC50"],
 "data": [
  ["CCn1ncc2c(NC3CCOCC3)c(-c3nc(C(=O)N4CCOCC4)co3)cnc21 [Example 59]", "PDE4B (human recombinant) (Homo sapiens)", "0.794 to 31.6 nM"],
  ["CCn1ncc2c(NC3CCCC3)c(-c3nnc(C(C)C)s3)cnc21 [Example 6]", "PDE4B (human recombinant) (Homo sapiens)", "7.94 nM"],
  ["CCCN(c1c(-c2nnc(C)o2)cnc2c1cnn2CC)C1CCOCC1 [Example 64]", "PDE4B (human recombinant) (Homo sapiens)", "63.1 to 251 nM"],
  ["CCn1ncc2c(NC3CCCC3)c(-c3nnc(CS(C)(=O)=O)o3)cnc21 [Example 2]", "PDE4B (human recombinant) (Homo sapiens)", "0.794 to 31.6 nM"],
  ["CCn1ncc2c(NC3CCN(C(C)=O)CC3)c(-c3nc(CN4CCOCC4)no3)cnc21 [Example 48]", "PDE4B (human recombinant) (Homo sapiens)", "63.1 to 251 nM"]
]}

Input: Fill in: IC50 of CCn1ncc2c(NC3CCOCC3)c(-c3nnc(C4CCOCC4)o3)c(C)nc21 [Example 66] is ___
Output: 0.794 to 31.6 nM

Input: Consider next the compound CCn1ncc2c(NC3CCOCC3)c(-c3nc(CC(=O)N4CCCC4)no3)cnc21 [Example 84] in the same way.
Output: 0.794 to 31.6 nM

----------
Reported IC50 is given for each of the following molecules.
system.name: PDE4B (human recombinant) (Homo sapiens)
Construct: made in house; host or cells: Saccharomyces cerevisiae strain GL62 (PDE-deficient)
test.details: PDE4B inhibition, radioactive SPA or IMAP fluorescence polarisation (FP) assay
Format: biochemical
measurement.parameters: one reading or average of ca. 2-6 readings, accurate only to about ±0.5 log unit, read-out: PDE4B pIC50 (±about 0.5) (converted)

Worked examples follow.
{"columns": ["structure.smiles", "IC50"],
 "data": [
  ["CCn1ncc2c(NC3CCOCC3)c(-c3nnc(Cc4nonc4C)o3)cnc21", "0.794 to 31.6 nM"],
  ["CCn1ncc2c(N(C)C3CCOCC3)c(-c3nnc(C)o3)cnc21", "63.1 to 251 nM"],
  ["CCn1ncc2c(NC3CCOCC3)c(-c3nnc(C4(C)COC4)o3)cnc21", "0.794 to 31.6 nM"]
]}

// switching to the query molecule
Input: Fill in: IC50 of CCn1ncc2c(NC3CCOCC3)c(-c3nnc(C(C)(C)C)o3)cnc21 is ___
Output: 0.794 to 31.6 nM

Reference source for all entries: patent US7528148B2
